The following compounds are shown together with reported normalised response values.
System: MDA-MB-453
experiment: normalised response (% of control), CellTox Green; higher = less cell death (100 = DMSO, 0 = benzethonium chloride kill control)
condition.set: incubation time: 72 h
Supply the numeric figure in %, leaving out any unit text.

Example compounds with recorded normalised response:
compound	assayed.system	measurement.units	normalised response
C=CCn1c(=O)c2cnc(Nc3ccc(N4CCN(C)CC4)cc3)nc2n1-c1cccc(C(C)(C)O)n1 [MK1775] (100 nM)	MDA-MB-453	%	96.5
CCn1c(C(=O)N(C2CC2)C2CC2)cc2c3c(ncn3C)c(Nc3cc(C)n(C)n3)nc21 (10000 nM)	MDA-MB-453	%	97.7
Cc1cc(Nc2nc(N[C@@H](C)c3ncc(F)cn3)ncc2Cl)[nH]n1 [AZD1480] (10 nM)	MDA-MB-453	%	98.8

Next compound, please.
Give the reported normalised response for Cc1cc(Nc2nc(N[C@@H](C)c3ncc(F)cn3)ncc2Cl)[nH]n1 [AZD1480] (1000 nM) (system: MDA-MB-453).
105

====

The following molecules are shown together with reported drug sensitivity score values.
Test system: CAL-148
experiment: drug sensitivity score (DSS), CellTiter-Glo (DSS (AUC-based score)); higher = stronger drug effect (viability inhibition or cytotoxicity); extreme values may be limits of the assay
condition.set: incubation time: 72 h
Output spec: single numeric token, no unit.

molecule	drug sensitivity score
CC(=O)[C@]1(O)Cc2c(O)c3c(c(O)c2[C@@H](O[C@H]2C[C@H](N)[C@H](O)[C@H](C)O2)C1)C(=O)c1ccccc1C3=O	10.5
CN(Cc1cnc2nc(N)nc(N)c2n1)c1ccc(C(=O)N[C@@H](CCC(=O)O)C(=O)O)cc1 [Methotrexate]	0
CN(C)C(=N)NC(=N)N	0
Cc1cn(-c2cc(NC(=O)c3ccc(C)c(Nc4nccc(-c5cccnc5)n4)c3)cc(C(F)(F)F)c2)cn1	0
CCn1c(C(=O)N(C2CC2)C2CC2)cc2c3c(ncn3C)c(Nc3cc(C)n(C)n3)nc21	0

Fill blank: measured drug sensitivity score of the molecule Cn1cc(C2=C(c3cn(C4CCN(Cc5ccccn5)CC4)c4ccccc34)C(=O)NC2=O)c2ccccc21 is ____.
0

Fill blank: measured drug sensitivity score of the molecule Cc1cc(Nc2nc(N[C@@H](C)c3ncc(F)cn3)ncc2Cl)[nH]n1 is ____.
0

Fill blank: measured drug sensitivity score of the molecule CO[C@@H]1[C@H](N(C)C(=O)c2ccccc2)C[C@H]2O[C@]1(C)n1c3ccccc3c3c4c(c5c6ccccc6n2c5c31)C(=O)NC4 is ____.
0

Fill blank: measured drug sensitivity score of the molecule CC1(COc2ccc3c(c2)ncn3-c2ccc3cccc(N4CCC(N)CC4)c3n2)COC1 is ____.
4.01

Fill blank: measured drug sensitivity score of the molecule CC1(C)CCC(c2ccc(Cl)cc2)=C(CN2CCN(c3ccc(C(=O)NS(=O)(=O)c4ccc(N[C@H](CCN5CCOCC5)CSc5ccccc5)c(S(=O)(=O)C(F)(F)F)c4)cc3)CC2)C1 is ____.
2

Fill blank: measured drug sensitivity score of the molecule COc1cc(Nc2c(C#N)cnc3cc(OCCCN4CCN(C)CC4)c(OC)cc23)c(Cl)cc1Cl is ____.
1.7

====

Test system: CAL-85-1
condition.set: 72 h
measured.quantity: EC50, CellTiter-Glo
Answer as a quantity: numeral, then unit.

Example molecules with recorded EC50, CellTiter-Glo:
molecule	endpoint.value
O=C(CCCCCCC(=O)Nc1ccccc1)NO	2320 nM
CN(Cc1cnc2nc(N)nc(N)c2n1)c1ccc(C(=O)N[C@@H](CCC(=O)O)C(=O)O)cc1 [Methotrexate]	2020 nM
C=CCn1c(=O)c2cnc(Nc3ccc(N4CCN(C)CC4)cc3)nc2n1-c1cccc(C(C)(C)O)n1	294 nM
CCN(CC)CCCC(C)Nc1ccnc2cc(Cl)ccc12 (configuration not stated)	11300 nM

Fill blank: measured EC50, CellTiter-Glo of the molecule C/C(=C\c1csc(C)n1)[C@@H]1C[C@@H]2O[C@]2(C)CCC[C@H](C)[C@H](O)[C@@H](C)C(=O)C(C)(C)[C@@H](O)CC(=O)N1 [Ixabepilone] is ____.
660 nM

Fill blank: measured EC50, CellTiter-Glo of the molecule Nc1ccn([C@@H]2O[C@H](CO)[C@@H](O)C2(F)F)c(=O)n1 is ____.
18.5 nM

Fill blank: measured EC50, CellTiter-Glo of the molecule CC1(COc2ccc3c(c2)ncn3-c2ccc3cccc(N4CCC(N)CC4)c3n2)COC1 is ____.
3970 nM
